# experimental_target: Human plasmin (Homo sapiens)
# Construct: Human plasmin is purchased from Boehringer Mannheim; purchased Boehringer Mannheim, Indianapolis, Ind
# Sequence (P00747 581-810 limits assumed): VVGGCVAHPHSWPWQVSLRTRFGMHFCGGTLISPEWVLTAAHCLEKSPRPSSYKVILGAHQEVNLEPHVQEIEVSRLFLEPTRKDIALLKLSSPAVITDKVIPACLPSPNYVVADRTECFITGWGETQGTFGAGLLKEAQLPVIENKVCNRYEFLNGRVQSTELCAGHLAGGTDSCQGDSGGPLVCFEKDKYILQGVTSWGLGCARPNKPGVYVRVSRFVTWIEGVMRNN
# Sequence (P00747 97-580 partner limits assumed): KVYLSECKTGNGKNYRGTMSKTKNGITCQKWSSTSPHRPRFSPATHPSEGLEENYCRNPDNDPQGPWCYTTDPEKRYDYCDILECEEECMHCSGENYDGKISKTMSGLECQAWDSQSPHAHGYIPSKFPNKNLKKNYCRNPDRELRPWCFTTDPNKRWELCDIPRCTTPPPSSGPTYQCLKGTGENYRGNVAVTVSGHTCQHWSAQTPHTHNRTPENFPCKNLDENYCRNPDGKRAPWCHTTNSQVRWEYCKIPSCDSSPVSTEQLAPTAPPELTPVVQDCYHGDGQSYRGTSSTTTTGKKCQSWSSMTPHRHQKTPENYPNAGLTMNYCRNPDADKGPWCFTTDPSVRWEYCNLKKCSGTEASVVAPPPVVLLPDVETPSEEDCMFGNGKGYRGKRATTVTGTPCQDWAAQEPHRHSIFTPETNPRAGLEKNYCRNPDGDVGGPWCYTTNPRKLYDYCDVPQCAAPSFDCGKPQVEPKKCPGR
# test_details: Serine protease inhibition (Kass), plasmin
# Format: biochemical
Non-standard residues stand in square brackets, D forms with d. Residues, ends and D or L forms follow the SMILES beside them. dNMeCha = CN[C@H](CC1CCCCC1)C(=O)O
Entries and their Kass Plasmin values follow.
observed_property: Kass Plasmin (L/mol × 10^6)

compound=Cc1noc(C)c1S(=O)(=O)N[C@H](Cc1ccccc1)C(=O)N1CCC[C@H]1C(=O)N[C@H](C=O)CCCNC(=N)N.Cl observed_property="Kass Plasmin" test_value=18
compound="CN[C@H](CC1CCCCC1)C(=O)N1CCC[C@H]1C(=O)N[C@H](C=O)CCCNC(=N)N.Cl [Example 75] (H-[dNMeCha]-Pro-Arg-aldehyde)" observed_property="Kass Plasmin" test_value=7.7
compound=Cl.N=C(N)NCCC[C@@H](C=O)NC(=O)[C@@H]1CCCN1C(=O)[C@@H](Cc1ccccc1)NS(=O)(=O)c1ccc(C(=O)O)cc1 observed_property="Kass Plasmin" test_value=7.0
compound=COCC(=O)N[C@H](Cc1ccccc1)C(=O)N1CCC[C@H]1C(=O)N[C@H](C=O)CCCNC(=N)N.Cl observed_property="Kass Plasmin" test_value=3.8
compound=CCOC(=O)N[C@H](Cc1ccccc1)C(=O)N1CCC[C@H]1C(=O)N[C@H](C=O)CCCNC(=N)N.Cl observed_property="Kass Plasmin" test_value=16
compound=CCS(=O)(=O)N[C@@H](C(=O)N1CCC[C@H]1C(=O)N[C@H](C=O)CCCNC(=N)N)c1ccccc1.Cl observed_property="Kass Plasmin" test_value=14

----------
# test_details: Index of Bioavailability (plasma TT AUC, oral vs i.v.)
# Type: in vivo
# condition_summary: rats, oral vs i.v. bolus
Non-standard residues stand in square brackets, D forms with d. Residues, ends and D or L forms follow the SMILES beside them. ξ: configuration not given here. dPip = O=C(O)[C@H]1CCCCN1; ξAze = O=C(O)C1CCN1
Entries and their Percent Relative Activity (Index of Bioavailability) values follow.
observed_property: Percent Relative Activity (Index of Bioavailability) (%)

molecule="N=C(N)NCCC[C@H](NC(=O)[C@@H]1CCCN1C(=O)C1CC2CCCCC2CN1)C(O)S(=O)(=O)[O-].O=S(=O)(O)O.[Na+] (stereo partly drawn)" test_value=57
molecule="Cl.Cl.N=C(N)NCCC[C@@H](C=O)NC(=O)C1CCN1C(=O)[C@H]1CCCCN1 (stereo partly drawn) [Example 3] (H-[dPip]-[ξAze]-Arg-aldehyde)" test_value=32
molecule=Cl.N=C(N)NCCC[C@@H](C=O)NC(=O)[C@@H]1CCCN1C(=O)[C@@H](Cc1ccccc1)NS(=O)(=O)c1ccccc1 test_value=3

----------
# experimental_target: Human plasmin (Homo sapiens)
# Construct: Human plasmin is purchased from Boehringer Mannheim; purchased Boehringer Mannheim, Indianapolis, Ind
# test_details: Serine protease inhibition (Kass), plasmin
# Format: biochemical
Please use YES whenever Kass Plasmin is not below 0.8 L/mol × 10^6, and NO whenever it is.

molecule=CN(C)S(=O)(=O)N[C@H](Cc1ccccc1)C(=O)N1CCC[C@H]1C(=O)N[C@H](C=O)CCCNC(=N)N.Cl class_label=YES
molecule=Cl.Cn1c(C(=O)NC2(C(=O)N3CCC[C@H]3C(=O)N[C@H](C=O)CCCNC(=N)N)CCCCC2)cc2ccccc21 class_label=NO
molecule=Cl.Cl.N=C(N)NCCC[C@@H](C=O)NC(=O)[C@]1(Cc2ccccc2)CCCN1C(=O)[C@@H]1CCCN1 class_label=NO
molecule=Cl.N=C(N)NCCC[C@@H](C=O)NC(=O)[C@@H]1CCCN1C(=O)[C@@H](Cc1ccccc1)NC(=O)C1CCCCC1 class_label=NO
molecule=CCCC[C@](Cc1ccccc1)(NC(=O)OCC)C(=O)N1CCC[C@H]1C(=O)N[C@H](C=O)CCCNC(=N)N.Cl class_label=NO
molecule=CC(C)S(=O)(=O)N[C@H](Cc1ccccc1)C(=O)N1CCC[C@H]1C(=O)N[C@H](C=O)CCCNC(=N)N.Cl class_label=YES
molecule="CCS(=O)(=O)NC(C)(C(=O)N1CCC[C@H]1C(=O)N[C@H](C=O)CCCNC(=N)N)c1ccccc1.Cl (stereo partly shown)" class_label=YES
molecule="Cl.Cn1c(C(=O)NC(C)(Cc2ccccc2)C(=O)N2CCC[C@H]2C(=O)N[C@H](C=O)CCCNC(=N)N)cc2ccccc21 (stereo partly shown)" class_label=NO
molecule=Cl.Cl.Cn1c(C(=O)N[C@](C)(Cc2ccccc2)C(=O)N2CCC[C@H]2C(=O)N[C@H](C=O)CCCNC(=N)N)cc2ccccc21 class_label=NO
molecule=CCOC(=O)N[C@](CC)(Cc1ccccc1)C(=O)N1CCC[C@H]1C(=O)N[C@H](C=O)CCCNC(=N)N.Cl class_label=NO
molecule=Cl.Cn1c(C(=O)N[C@H](Cc2ccccc2)C(=O)N2CCC[C@H]2C(=O)N[C@H](C=O)CCCNC(=N)N)cc2ccccc21 class_label=YES
molecule=CC(=O)N[C@H](Cc1ccccc1)C(=O)N1CCC[C@H]1C(=O)N[C@H](C=O)CCCNC(=N)N.Cl class_label=NO
molecule=CCS(=O)(=O)NC1(C(=O)N2CCC[C@H]2C(=O)N[C@H](C=O)CCCNC(=N)N)CCCCC1.Cl class_label=NO
molecule=Cl.N=C(N)NCCC[C@@H](C=O)NC(=O)[C@@H]1CCCN1C(=O)[C@@H](Cc1ccccc1)NC(=O)C(F)(F)F class_label=NO
molecule=CCOC(=O)N[C@H](Cc1ccccc1)C(=O)N1CCC[C@@]1(C)C(=O)N[C@H](C=O)CCCNC(=N)N.Cl class_label=NO
molecule=Cl.N=C(N)NCCC[C@@H](C=O)NC(=O)[C@@H]1CCCN1C(=O)[C@@H](CC1CCCCC1)NC(=O)c1cc2ccccc2cn1 class_label=YES
